- Read-out: UDP glucuronosyltransferase (UGT1A6), UGT1A6 (gene 54578)
- experiment: LTEA_HepaRG_UGT1A6: Life Technologies and Expression Analysis (LTEA) Assay for UDP glucuronosyltransferase (UGT1A6) using HepaRG (AID 2283539)
- measurement_conditions: mRNA level, 48 h; actives raise or lower the signal
Calls of active or inactive are those of the source. Rule for the calls: active = hit-call score of the fitted dose curve at least 0.9, where 1 is the maximum; inactive = score below 0.9.
Your answer must be one of the following: active, inactive

The following compounds have reported results that may help.
                                smiles_data       cat
0                      CCCCCCCCCc1ccc(O)cc1  inactive
1                   CCNc1nc(NC(C)C)nc(SC)n1  inactive
2  Oc1ccc(C(c2ccc(O)cc2)(C(F)(F)F)C(F)(F)F)cc1    active
3                CC#Cc1cc(C)nc(Nc2ccccc2)n1  inactive

Alright, here's another compound for you.
Which result was noted for this compound in the test: "CO/C=C(/C(=O)OC)c1ccccc1COc1cccc(C(F)(F)F)n1"
active

# credit: PubChem BioAssay (EPA / NIEHS)
